Hello, the source for this data is patent US20190177416A1, in case you need it.

biological target: T1, human PD-L1 protein (coated antigen) (human, UniProt Q9NZQ7 19-238, limits assumed); assay: ELISA, purified nanobody 10 ug/mL on coated PD-L1, anti-HA detection
T1 construct: Construct not described; also called PD-L1 antigen; antigenic protein PD-L1
T1 sequence (Q9NZQ7 19-238 limits assumed): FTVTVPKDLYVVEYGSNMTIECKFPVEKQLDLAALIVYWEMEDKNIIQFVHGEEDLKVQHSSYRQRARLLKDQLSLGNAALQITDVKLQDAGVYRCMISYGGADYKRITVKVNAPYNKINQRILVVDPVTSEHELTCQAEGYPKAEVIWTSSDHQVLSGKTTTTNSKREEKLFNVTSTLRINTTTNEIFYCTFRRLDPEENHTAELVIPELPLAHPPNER
Exercise: for every item that follows, state its recorded ELISA absorbance (A405 nm).

Request: If you can, please state the reported ELISA absorbance (A405 nm) value of SEQ ID NO 7 (VHH, pMECS-expressed; also called anti-PD-L1 nanobody No. 7; VHH numbered 7) VHH: QVQLQESGGGSVQTGGSLRLSCACSTSIYSTNYMAWFSQAPGKGREGVAAVYIGDGRPYYADSVKGRFTISLDSAKNTVYLQMNSLKPEDTAMYYCAAAPGPLSRNYWYTSANYDYWGQGTQVTVSS .
Result: 3.51 A405 nm

Request: If you can, please state the reported ELISA absorbance (A405 nm) value of SEQ ID NO 2 (VHH, pMECS-expressed; also called anti-PD-L1 nanobody No. 2; VHH numbered 2) VHH: QVQLQESGGGSVQAGGSLRLSCAVSRYSASNNVIKWMGWFRQAPGKEREGVAALYTSGGNTYYADSVKGRFTISRDYSENTVSLQMNNLKPEDTGMYYCATTVGTVLAGPLSARKYNYWGQGTQVTVSS .
Result: 3.63 A405 nm
